The reported numbers originate from paper PMC3461162.

Test: Plasma pharmacokinetics, non-compartmental analysis
Assay type: in vivo, human
Details: human, plasma, oral, 60 mg, t1/2 ss, Amean (n) (range), following BID dosing; 60 mg BID tablet
reported_endpoint: half-life (h)
Write the number in h without appending the unit.

Field request: half-life | item: COc1ccc(-c2ccc3c(N4CCOC[C@@H]4C)nc(N4CCOC[C@@H]4C)nc3n2)cc1CO [AZD8055]
2.81

====

Assay: Plasma pharmacokinetics, non-compartmental analysis
Format: in vivo, human
Conditions: human, plasma, oral, 90 mg
reported_endpoint: Cmax (ng/mL)
Response body: numeric value in ng/mL, unit text excluded.

Any idea what its Cmax is? The compound is COc1ccc(-c2ccc3c(N4CCOC[C@@H]4C)nc(N4CCOC[C@@H]4C)nc3n2)cc1CO
70.1

====

Test: Plasma pharmacokinetics, non-compartmental analysis
Format: in vivo, human
Conditions: human, plasma, oral, 20 mg, t1/2, Amean (range), single dose; 20 mg solution (n=3)
reported_endpoint: half-life (h)
Numbers only; they are read as h.

I am curious: what half-life value has been reported for COc1ccc(-c2ccc3c(N4CCOC[C@@H]4C)nc(N4CCOC[C@@H]4C)nc3n2)cc1CO ?
1.86

====

Experiment: Plasma pharmacokinetics, non-compartmental analysis
Type: in vivo, human
Settings: human, plasma, oral, median tmax, single and multiple doses across all cohorts
reported_endpoint: Tmax

Field request: Tmax | item: COc1ccc(-c2ccc3c(N4CCOC[C@@H]4C)nc(N4CCOC[C@@H]4C)nc3n2)cc1CO
~30 min

====

Test: Plasma pharmacokinetics, non-compartmental analysis
Format: in vivo, human
Settings: human, plasma, oral, 60 mg, Cmax ss, Gmean (n) (range), following BID dosing; 60 mg BID tablet
reported_endpoint: Cmax (ng/mL)
Numeric only. Scale: ng/mL

Fill blank: measured Cmax of the compound COc1ccc(-c2ccc3c(N4CCOC[C@@H]4C)nc(N4CCOC[C@@H]4C)nc3n2)cc1CO is ____.
82.8

====

Assay: Urine pharmacokinetics after single dose
Format: in vivo, human
Conditions: human, urine, oral, 60 mg, CLR, Amean (n) (range), single dose; 60 mg tablet
reported_endpoint: CL renal
Dear colleague, please send the value followed by its unit.

Data request, read-out CL renal, for COc1ccc(-c2ccc3c(N4CCOC[C@@H]4C)nc(N4CCOC[C@@H]4C)nc3n2)cc1CO
2.67 mL/min

====

Assay: Plasma pharmacokinetics, non-compartmental analysis
Assay type: in vivo, human
Settings: human, plasma, oral, 10 mg, tmax ss, Median (n) (range), following BID dosing; 10 mg BID solution
reported_endpoint: Tmax (min)
Answer in min, number only, no unit symbol.

I have this compound here, COc1ccc(-c2ccc3c(N4CCOC[C@@H]4C)nc(N4CCOC[C@@H]4C)nc3n2)cc1CO , and I need its recorded Tmax.
30

====

Test: Plasma pharmacokinetics, non-compartmental analysis
Format: in vivo, human
Conditions: human, plasma, oral, 60 mg, Cmax, Gmean (range), single dose; 60 mg tablet (n=7)
reported_endpoint: Cmax (ng/mL)
Value expressed in ng/mL; do not type the unit.

Could you tell me which Cmax is on file for COc1ccc(-c2ccc3c(N4CCOC[C@@H]4C)nc(N4CCOC[C@@H]4C)nc3n2)cc1CO [AZD8055] ?
57.1

====

Test: Plasma pharmacokinetics, non-compartmental analysis
Format: in vivo, human
Details: human, plasma, oral, 120 mg, tmax ss, Median (n) (range), following BID dosing; 120 mg BID tablet
reported_endpoint: Tmax (min)
Reply with just the number (in min).

Which Tmax is listed for COc1ccc(-c2ccc3c(N4CCOC[C@@H]4C)nc(N4CCOC[C@@H]4C)nc3n2)cc1CO ?
30

====

Assay: Plasma pharmacokinetics, non-compartmental analysis
Type: in vivo, human
Settings: human, plasma, oral, 20 mg, Vss/F, Amean (range), single dose; 20 mg solution (n=3)
reported_endpoint: Vd/F
Put your answer as a value accompanied by its unit after it.

Item COc1ccc(-c2ccc3c(N4CCOC[C@@H]4C)nc(N4CCOC[C@@H]4C)nc3n2)cc1CO [AZD8055] has what recorded Vd/F?
1050 L

====

Assay: Plasma pharmacokinetics, non-compartmental analysis
Type: in vivo, human
Conditions: human, plasma, oral, 40 mg, tmax, Median (range), single dose; 40 mg tablet (n=7)
reported_endpoint: Tmax (h)
Enter your answer as a number in h; do not include the unit.

Which measured Tmax value corresponds to COc1ccc(-c2ccc3c(N4CCOC[C@@H]4C)nc(N4CCOC[C@@H]4C)nc3n2)cc1CO ?
1

====

Experiment: Plasma pharmacokinetics, non-compartmental analysis
Type: in vivo, human
Conditions: human, plasma, oral, 60 mg, AUC, Gmean (range), single dose; 60 mg tablet (n=7)
reported_endpoint: AUC (ng·h/mL)
Form entry: value (ng·h/mL) — number only.

Item COc1ccc(-c2ccc3c(N4CCOC[C@@H]4C)nc(N4CCOC[C@@H]4C)nc3n2)cc1CO [AZD8055] has what recorded AUC?
136

====

Test: Plasma pharmacokinetics, non-compartmental analysis
Format: in vivo, human
Details: human, plasma, oral, 40 mg, Vss/F, Amean (range), single dose; 40 mg tablet (n=7)
reported_endpoint: Vd/F (L)
Numbers only here, please. The scale is L.

Which Vd/F reading was recorded for the compound COc1ccc(-c2ccc3c(N4CCOC[C@@H]4C)nc(N4CCOC[C@@H]4C)nc3n2)cc1CO ?
762

====

Test: Plasma pharmacokinetics, non-compartmental analysis
Type: in vivo, human
Conditions: human, plasma, oral, 40 mg, Cmax ss, Gmean (n) (range), following BID dosing; 40 mg BID solution
reported_endpoint: Cmax (ng/mL)
I only need the number, in ng/mL, no unit after it.

What does the data say about its Cmax? Entry: COc1ccc(-c2ccc3c(N4CCOC[C@@H]4C)nc(N4CCOC[C@@H]4C)nc3n2)cc1CO [AZD8055]
61.9

====

Test: Plasma pharmacokinetics, non-compartmental analysis
Type: in vivo, human
Details: human, plasma, oral, 40 mg, AUCss, Gmean (n) (range), following BID dosing; 40 mg BID solution
reported_endpoint: AUC (ng·h/mL)
Answer in ng·h/mL, number only, no unit symbol.

Recorded AUC of COc1ccc(-c2ccc3c(N4CCOC[C@@H]4C)nc(N4CCOC[C@@H]4C)nc3n2)cc1CO [AZD8055] , please.
111

====

Experiment: Plasma pharmacokinetics, non-compartmental analysis
Assay type: in vivo, human
Conditions: human, plasma, oral, 40 mg, tmax, Median (range), single dose; 40 mg solution (n=6)
reported_endpoint: Tmax (min)
Write the number in min without appending the unit.

I'd like to know its Tmax. The compound in question is COc1ccc(-c2ccc3c(N4CCOC[C@@H]4C)nc(N4CCOC[C@@H]4C)nc3n2)cc1CO [AZD8055]
22.2

====

Experiment: Plasma pharmacokinetics, non-compartmental analysis
Format: in vivo, human
Conditions: human, plasma, oral, 10 mg, Vss/F, Amean (range), single dose; 10 mg solution (n=5)
reported_endpoint: Vd/F (L)
Just the number in L, nothing appended.

Find the recorded Vd/F belonging to COc1ccc(-c2ccc3c(N4CCOC[C@@H]4C)nc(N4CCOC[C@@H]4C)nc3n2)cc1CO and report it.
884

====

Assay: Plasma pharmacokinetics, non-compartmental analysis
Format: in vivo, human
Details: human, plasma, oral, 40 mg, Cmax, Gmean (range), single dose; 40 mg solution (n=6)
reported_endpoint: Cmax (µg/mL)
The response must be a number in µg/mL with no trailing unit.

Which Cmax reading was recorded for the molecule COc1ccc(-c2ccc3c(N4CCOC[C@@H]4C)nc(N4CCOC[C@@H]4C)nc3n2)cc1CO ?
0.0709

====

Assay: Plasma pharmacokinetics, non-compartmental analysis
Format: in vivo, human
Details: human, plasma, oral, 120 mg, t1/2 ss, Amean (n) (range), following BID dosing; 120 mg BID tablet
reported_endpoint: half-life (h)
Write it as a number; the unit h goes unstated.

Any idea what its half-life is? The compound is COc1ccc(-c2ccc3c(N4CCOC[C@@H]4C)nc(N4CCOC[C@@H]4C)nc3n2)cc1CO [AZD8055]
2.45

====

Test: Plasma pharmacokinetics, non-compartmental analysis
Format: in vivo, human
Conditions: human, plasma, oral, 120 mg, Cmax, Gmean (range), single dose; 120 mg tablet (n=10)
reported_endpoint: Cmax (ng/mL)
Only the number, expressed in ng/mL, is required.

Suppose we examine the compound COc1ccc(-c2ccc3c(N4CCOC[C@@H]4C)nc(N4CCOC[C@@H]4C)nc3n2)cc1CO ; what Cmax value has been reported?
177

====

Test: Urine pharmacokinetics after single dose
Assay type: in vivo, human
Conditions: human, urine, oral, 90 mg, CLR, Amean (n) (range), single dose; 90 mg tablet
reported_endpoint: CL renal (mL/min)
I only need the number, in mL/min, no unit after it.

Which CL renal value belongs to COc1ccc(-c2ccc3c(N4CCOC[C@@H]4C)nc(N4CCOC[C@@H]4C)nc3n2)cc1CO ?
1.75

====

Test: Plasma pharmacokinetics, non-compartmental analysis
Format: in vivo, human
Conditions: human, plasma, oral, 10 mg, AUC, Gmean (range), single dose; 10 mg solution (n=5)
reported_endpoint: AUC (ng·h/mL)
# output: bare number, implied unit ng·h/mL

Quick check: AUC of COc1ccc(-c2ccc3c(N4CCOC[C@@H]4C)nc(N4CCOC[C@@H]4C)nc3n2)cc1CO [AZD8055] ?
24.5
